Reported pIC50 is given for each of the following compounds.
Target: mTOR protein (Homo sapiens)
Test: mTOR enzyme activity assay (PHAS-1 substrate)
Conditions: recombinant PHAS-1 as substrate
pIC50: −log10 of the molar value.

// known answers, use as guide
Let me check: COc1cc(C=NN(C)c2nc(N3CCOCC3)c3cccnc3n2)cc(OC)c1O [Compound 75b] , system mTOR protein (Homo sapiens), measured pIC50 is > 5.82

Let me check: COc1cc(-c2cncn2-c2ccnc(N3CCOCC3)n2)cc(OC)c1O [Compound 50] , system mTOR protein (Homo sapiens), measured pIC50 is > 5.82

Let me check: COc1cc(-c2csc(-c3ccnc(N4CCOC[C@@H]4C)n3)n2)cc(OC)c1O [Compound 59i] , system mTOR protein (Homo sapiens), measured pIC50 is > 5.82

Let me check: Oc1c(F)cc(-c2csc(-c3ccnc(N4CCOCC4)n3)n2)cc1F [Compound 59a] , system mTOR protein (Homo sapiens), measured pIC50 is > 5.82

Continuing:
Let me check: CN(N=Cc1cc(O)c(O)c(O)c1)c1nc(N2CCOCC2)c2cccnc2n1 [Compound 75a] , system mTOR protein (Homo sapiens), measured pIC50 is > 5.82

Let me check: O=C(NNc1nc(N2CCOCC2)nc(N2CCOCC2)n1)c1cc(O)c(O)c(O)c1 [Compound 47a] , system mTOR protein (Homo sapiens), measured pIC50 is > 5.82

Let me check: COc1cc(-c2csc(-c3ccnc(N4CCOCC4)n3)n2)cc(OC)c1O [Compound 27] , system mTOR protein (Homo sapiens), measured pIC50 is > 5.82

Let me check: COc1cc(C=NNc2cc(N3CCOCC3)nc(N3CCCCC3)n2)cc(OC)c1O [Compound 12b] , system mTOR protein (Homo sapiens), measured pIC50 is > 5.82

Let me check: COc1cc2ncnc(NN=Cc3ccc(O)c(O)c3)c2cc1OC [Compound 41a] , system mTOR protein (Homo sapiens), measured pIC50 is > 5.82

Let me check: COc1cc(-c2csc(-c3ccnc(N4CCOCC4)n3)c2)cc(OC)c1O [Compound 69a] , system mTOR protein (Homo sapiens), measured pIC50 is > 5.82

Let me check: COc1cc(-c2csc(-c3ccnc(N4CCCC(OC)C4)n3)n2)cc(OC)c1O (centres unmarked) [Compound 59j] , system mTOR protein (Homo sapiens), measured pIC50 is > 5.82
